Catalogue of CMC readings, one per entry.
test_details: Critical Micellar concentration was determined
Assay type: ADME
Write the figure, then the unit, nothing else.

Query: Reported CMC, compound CC(CCC(=O)NCC(=O)O)C1CC[C@H]2[C@@H]3[C@H](O)CC4C[C@H](O)CCC4(C)[C@H]3CCC12C (some centres not stated) : ____
Result: 12 mM

Query: Reported CMC, compound CC(CCC(=O)N1CCC[C@@H]1C(=O)O)C1CC[C@H]2[C@@H]3C[C@H](O)C4C[C@H](O)CC[C@]4(C)[C@H]3CC[C@]12C (some centres not stated) : ____
Result: 25 mM

Query: Reported CMC, compound CC(CCC(=O)N1CCC[C@H]1C(=O)O)C1CC[C@H]2[C@@H]3[C@@H](O)CC4C[C@H](O)CC[C@]4(C)[C@H]3CC[C@]12C (some centres not stated) : ____
Result: 7 mM

Query: Reported CMC, compound CC(CCC(=O)N1C[C@@H](O)C[C@@H]1C(=O)O)C1CC[C@H]2[C@@H]3[C@@H](O)CC4C[C@H](O)CC[C@]4(C)[C@H]3CC[C@]12C (some centres not stated) : ____
Result: 10 mM

Query: Reported CMC, compound CO[C@H]1C[C@H](C(=O)O)N(C(=O)CCC(C)C2CC[C@H]3[C@@H]4[C@@H](O)CC5C[C@H](O)CC[C@]5(C)[C@H]4CC[C@]23C)C1 (some centres not stated) : ____
Result: 29 mM

New cases:
Query: Reported CMC, compound CC(CCC(=O)N1CCC[C@@H]1C(=O)O)C1CC[C@H]2[C@@H]3[C@@H](O)CC4C[C@H](O)CC[C@]4(C)[C@H]3CC[C@]12C (some centres not stated) : ____
Result: 15 mM

Query: Reported CMC, compound CC(CCC(=O)N1CCC[C@@H]1C(=O)O)C1CC[C@H]2[C@@H]3[C@H](O)[C@H](O)C4C[C@H](O)CC[C@]4(C)[C@H]3CC[C@]12C (some centres not stated) : ____
Result: 30 mM

* * *

Test system: Rattus norvegicus
test_details: Secretion of phospholipid in Bile Fistula rats after the iv administration of compound, expressed as the maximum secretion rate i
Format: ADME, organism-based
conditions: in vivo
measurement_label: Smax (µM/min/kg)
Answer format: numeric, µM/min/kg implied, no suffix.

Please review the entries below; each comes with its answer.
Query: Reported Smax, molecule CC(CCC(=O)N1C[C@@H](O)C[C@@H]1C(=O)O)C1CC[C@H]2[C@@H]3[C@@H](O)CC4C[C@H](O)CC[C@]4(C)[C@H]3CC[C@]12C (stereo partly specified) : ____
Result: 0.25

Query: Reported Smax, molecule CC(CCC(=O)N1CCC[C@@H]1C(=O)O)C1CC[C@H]2[C@@H]3[C@@H](O)CC4C[C@H](O)CC[C@]4(C)[C@H]3CC[C@]12C (stereo partly specified) : ____
Result: 0.28

Query: Reported Smax, molecule CC(CCC(=O)N1CCC[C@H]1C(=O)O)C1CC[C@H]2[C@@H]3[C@@H](O)CC4C[C@H](O)CC[C@]4(C)[C@H]3CC[C@]12C (stereo partly specified) : ____
Result: 0.2

Query: Reported Smax, molecule CO[C@H]1C[C@H](C(=O)O)N(C(=O)CCC(C)C2CC[C@H]3[C@@H]4[C@@H](O)CC5C[C@H](O)CC[C@]5(C)[C@H]4CC[C@]23C)C1 (stereo partly specified) : ____
Result: 0.28

Query: Reported Smax, molecule CC(CCC(=O)N1CCC[C@@H]1C(=O)O)C1CC[C@H]2[C@@H]3C[C@H](O)C4C[C@H](O)CC[C@]4(C)[C@H]3CC[C@]12C (stereo partly specified) : ____
Result: 0.34

// next item, Smax requested
Query: Reported Smax, molecule CC(CCC(=O)N1CCC[C@@H]1C(=O)O)C1CC[C@H]2[C@@H]3[C@H](O)[C@H](O)C4C[C@H](O)CC[C@]4(C)[C@H]3CC[C@]12C (stereo partly specified) : ____
Result: 0.28
